experiment: Cell Viability - LYMP2-018 (AID 985); settings: LYMP2-018 lymphoblastoid cells, viability (qHTS); series mostly up to 92.2 µM;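 further: potency means the concentration at half of the fitted maximal effect; compound exposure lasted 24 hr at 37 °C; nearly all actives have a fitted effect of over 50% in size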
Results filed as inconclusive are left out. Active and inactive are the calls of the source. The call rests on the fitted dose curve; in most records, active means well fitted cell-killing curve with a large enough effect; inconclusive means small, poorly fitted or top-dose-only effect; inactive means flat fitted curve, though single readings scatter.
measured.endpoint: Potency

[
  {
    "sample.smiles": "C/C=C/C=C/C=O",
    "endpoint.value": "39.8 µM (active)"
  }
]

Please examine the following record next.
Can you share its Potency? I mean this compound: C/C=C1/C(=O)C[C@H]2[C@@H]3CCC4=CC(=O)CC[C@]4(C)[C@H]3CC[C@]12C
50.1 µM (active)

---

Listing of entries alongside the reported activity change % (negative = inhibition).
target: Thyroid hormone receptor beta (Homo sapiens) (UniProt P10828); assay: qHTS assay for small molecule antagonists of thyroid hormone receptor beta signaling (AID 588547); settings: TR-UAS-bla HEK293, beta-lactamase ratio, antagonist mode, 18 h;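 further: cells stimulated with 0.4 nM T3 agonist during compound exposure; on the % scale 0 is the no-effect control and ±100 the full control effect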
Sequence (P10828 whole entry, looked up): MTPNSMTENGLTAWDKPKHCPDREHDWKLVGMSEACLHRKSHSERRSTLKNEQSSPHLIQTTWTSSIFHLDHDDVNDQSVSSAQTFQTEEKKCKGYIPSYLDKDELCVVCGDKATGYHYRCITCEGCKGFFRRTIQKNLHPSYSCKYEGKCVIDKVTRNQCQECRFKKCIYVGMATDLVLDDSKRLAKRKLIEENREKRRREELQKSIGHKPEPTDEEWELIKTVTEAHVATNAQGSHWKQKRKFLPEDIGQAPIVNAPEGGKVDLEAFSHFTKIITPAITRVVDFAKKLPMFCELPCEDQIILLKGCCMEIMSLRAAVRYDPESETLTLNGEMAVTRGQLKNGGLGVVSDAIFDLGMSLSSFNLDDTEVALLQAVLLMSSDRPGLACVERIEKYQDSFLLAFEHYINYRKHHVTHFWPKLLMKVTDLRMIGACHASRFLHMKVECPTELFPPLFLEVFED
Records with an inconclusive call do not appear.
The reply should contain only the number, in %.

[
  {
    "sample.smiles": "C[Si](C)(C)Cl",
    "tested.target": "Thyroid hormone receptor beta (Homo sapiens) (UniProt P10828)",
    "endpoint.value": -7.14
  },
  {
    "sample.smiles": "c1ccncc1",
    "tested.target": "Thyroid hormone receptor beta (Homo sapiens) (UniProt P10828)",
    "endpoint.value": -8.3
  }
]

Please examine the following record next.
Can you share its activity change % (negative = inhibition)? I mean this molecule: CN(C)c1ccc(C(=N)c2ccc(N(C)C)cc2)cc1
-25.2
